ASSAYED TARGET: T1, Human fibrinogen protein (ThermoFisher, RP-43142) (human, UniProt P02671 20-629; P02675 31-491; P02679 27-453, limits assumed, natural sulfotyrosines)
T1 construct: mature; Native dimer with 3 pairs of non-identical chains; also called gamma-fibrinogen; γ fibrinogen protein
T1 sequence (looked up) 1: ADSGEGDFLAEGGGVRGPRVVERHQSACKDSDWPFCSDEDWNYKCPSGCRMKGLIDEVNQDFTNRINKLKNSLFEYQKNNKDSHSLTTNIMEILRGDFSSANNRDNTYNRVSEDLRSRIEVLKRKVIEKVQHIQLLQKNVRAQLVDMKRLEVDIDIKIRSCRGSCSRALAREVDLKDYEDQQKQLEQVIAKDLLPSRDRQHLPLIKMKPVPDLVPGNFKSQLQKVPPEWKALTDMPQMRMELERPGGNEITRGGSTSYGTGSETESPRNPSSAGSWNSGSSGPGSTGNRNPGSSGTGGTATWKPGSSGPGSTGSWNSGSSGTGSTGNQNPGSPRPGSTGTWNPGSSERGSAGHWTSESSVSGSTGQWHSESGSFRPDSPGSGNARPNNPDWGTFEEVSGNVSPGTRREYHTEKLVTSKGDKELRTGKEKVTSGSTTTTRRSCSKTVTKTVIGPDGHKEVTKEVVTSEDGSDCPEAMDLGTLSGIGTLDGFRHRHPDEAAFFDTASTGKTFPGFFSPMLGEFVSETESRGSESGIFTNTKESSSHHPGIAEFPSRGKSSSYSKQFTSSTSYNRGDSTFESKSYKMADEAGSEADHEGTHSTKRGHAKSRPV
T1 sequence (looked up) 2: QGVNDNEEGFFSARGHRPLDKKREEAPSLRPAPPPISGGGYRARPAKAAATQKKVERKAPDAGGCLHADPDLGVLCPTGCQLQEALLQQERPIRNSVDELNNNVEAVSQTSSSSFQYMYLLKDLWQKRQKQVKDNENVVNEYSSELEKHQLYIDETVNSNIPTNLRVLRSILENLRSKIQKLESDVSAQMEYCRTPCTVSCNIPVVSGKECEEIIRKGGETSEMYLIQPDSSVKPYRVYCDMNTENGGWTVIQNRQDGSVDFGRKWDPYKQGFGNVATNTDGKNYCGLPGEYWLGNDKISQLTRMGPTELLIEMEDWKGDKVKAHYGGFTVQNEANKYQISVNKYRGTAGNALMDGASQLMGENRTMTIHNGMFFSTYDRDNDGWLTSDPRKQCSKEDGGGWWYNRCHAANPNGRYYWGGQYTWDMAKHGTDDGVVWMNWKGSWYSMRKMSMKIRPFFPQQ
T1 sequence (looked up) 3: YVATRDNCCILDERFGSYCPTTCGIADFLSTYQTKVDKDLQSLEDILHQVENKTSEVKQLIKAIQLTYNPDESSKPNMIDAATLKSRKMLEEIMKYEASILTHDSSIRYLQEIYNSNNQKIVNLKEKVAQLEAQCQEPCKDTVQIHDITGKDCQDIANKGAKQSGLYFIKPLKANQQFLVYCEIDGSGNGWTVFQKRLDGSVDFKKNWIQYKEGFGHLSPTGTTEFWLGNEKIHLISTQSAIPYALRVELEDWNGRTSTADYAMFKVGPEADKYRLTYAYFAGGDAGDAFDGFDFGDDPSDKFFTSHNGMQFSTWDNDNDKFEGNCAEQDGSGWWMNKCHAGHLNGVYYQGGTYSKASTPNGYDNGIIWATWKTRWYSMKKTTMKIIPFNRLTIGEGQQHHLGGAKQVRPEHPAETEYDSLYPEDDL
TEST DETAILS: ELISA, 50 nM mAb
ASSAY METRIC: binding normalized to PSGL-1
Output spec: single numeric token, no unit.

| BINDER | ASSAY METRIC | ENDPOINT RESULT |
| --- | --- | --- |
| 5E12 (antibody, V domains shown, Mouse hybridoma mAb; only variable domains given) VH: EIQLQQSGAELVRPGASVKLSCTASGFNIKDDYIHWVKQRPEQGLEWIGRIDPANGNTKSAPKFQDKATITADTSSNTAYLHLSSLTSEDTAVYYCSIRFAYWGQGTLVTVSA VL: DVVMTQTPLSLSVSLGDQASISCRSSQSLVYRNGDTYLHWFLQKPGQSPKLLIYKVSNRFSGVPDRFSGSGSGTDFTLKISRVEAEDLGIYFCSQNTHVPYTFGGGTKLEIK | binding normalized to PSGL-1 | 0.03 |

Could you now look at the following binder, please?
Problem: Please look up its binding normalized to PSGL-1: 01A04 (antibody, IgG4, V domains shown) VH: EVQLVQSGAEVKKPGASVKVSCKASGYTFTSYYIHWVRQAPGQGLEWMGIIRPSGGSTSYAQKFQGRVTMTRDTSTSTVYMELSSLRSEDTAMYYCARVGVGSFDYWGQGTLVTVSS VL: DIQMTQSPSTLSASVGDRVTITCRASQSVSNWLAWYQQKPGKAPKLLIYKASSLESGVPSRFSGSGSGTEFTLTISSLQPDDFATYYCQWFRTFGPGTKVDIK
Result: 0.8
